The reported numbers originate from PubChem BioAssay (NCI).

system: M14 melanoma; test: NCI-60 one-dose screen, 48 h; settings: 10 µM unless noted
Compounds without any hit were thinned out: in the full panel of roughly 83,000, 20% have a hit. The source made the active and inactive calls. Rule for the calls: active = growth percent below 10; inactive = the rest.
Would you mind answering with one of these outcomes? active, inactive

What call does the record list for COc1ccc(/C(=N/O)c2cc(OC)c(OC)c(OC)c2)c(OC)c1N ? inactive

Give the logged outcome of this assay for the following molecule: COc1cc(NC(=O)CSc2nc3ccc(C)cc3c(=O)n2-c2ccccc2)cc(OC)c1OC inactive

Called result for COc1ncc(-c2ccc3ncnc(Nc4cccc(Cl)c4)c3c2)cc1NS(=O)(=O)CCN1CCOCC1 inactive

Name the outcome recorded for O=C(Cc1n[nH]c(=O)c2ccccc12)OCc1c(Cl)cccc1Cl in the assay. inactive

Record lookup: outcome of this test for C=CCOc1cccc(/C=C/C(=O)c2sc(Nc3cccnc3)nc2C)c1 ? inactive

For this molecule, state the assay outcome: O=C(/C=C/CN1CCOCC1)Nc1cc2c(Nc3cccc(Cl)c3F)ncnc2cc1OCCOC(F)F inactive

How was Cc1c(C2=NNC(c3ccc4c(c3)OCO4)C2)[n+]([O-])c2ccccc2[n+]1[O-] (stereo not drawn) classified in this test? inactive

Kindly provide the recorded test outcome for the following molecule: COc1ccc(N=C2NN=C(c3ccc(F)cc3)CS2)cc1OC inactive

Answer briefly: the call reported for COc1cccc2nc(Nc3ccc(NC(=O)c4ccc5ncccc5c4)cc3)ccc12 in this assay. inactive

Which outcome did this test record for the molecule O=C1CCC(=O)N1Cc1ccccc1 ? inactive

Any idea what this test logged for Cc1oc2nc[nH]c(=O)c2c1C(=O)/C=C/c1ccc(Cl)cc1 ? inactive

Per the records of this test, what outcome belongs to CCCCCCCCCCC/C=C\C[C@H](O)C/C=C1/C(=O)C=C[C@@H]1C/C=C\CCCC(=O)OC ? active

Please state the recorded outcome for this molecule: O=c1c2cccc3c(Nc4ccc(F)cc4)ccc(c32)c2nc3ccccc3n12 inactive

Could you kindly confirm the outcome this assay logged for CCC(c1cccc(Br)c1)C(C(=O)O)c1ccc(OC)cc1 (stereo not drawn) ? inactive

Answer briefly: the call reported for O=C(O)c1ccc(-n2c(=O)c3ccccc3c3ccccc3c2=O)cc1 in this assay. inactive

Given COc1ccc(S(=O)(=O)NCCNc2nccc(-c3c(-c4ccccc4)nc4sccn34)n2)cc1 , state the outcome it received in this test. inactive

State the result this test recorded for CCOC(=O)c1cc(/C(=N\O)c2cc(OC)c(OC)c(OC)c2)n2cc(C)cc(C)c12 . inactive

What is the recorded call for this molecule in the test? Cc1ccc(C2=NN(c3ccc(S(=O)(=O)NC(=O)NCc4ccccc4)cc3)C(c3ccc(N(C)C)cc3)C2)c(C)c1 (stereo not drawn) inactive

What did this assay record as the result for C=C1C(=O)O[C@H]2[C@H]1CC/C(COC(=O)NCCc1cccc(OC)c1)=C\CC[C@@]1(C)O[C@@H]21 ? inactive

Look up the recorded call for OCc1c(-c2ccccc2)nc2sccn12 in this test. inactive

# outcome recorded in this test, key = CN(C)CCCNC(=O)C(c1ccccc1)c1ccccc1 inactive

Field: outcome | Entry: CCSc1nnc(NC(=O)Cc2ccc(Cl)cc2)s1 inactive

Dear colleague, could you share the recorded outcome for COc1ccc(C(=O)c2cc(OC)c(OC)c(OC)c2)cc1/C=C/C(=O)c1ccc(OC)c(OC)c1 when you have a moment? inactive

For this molecule, state the assay outcome: O=c1[nH]c2ccccc2cc1-c1nnc(Cc2ccccc2)o1 inactive

What outcome does the record of this test show for CCOC(=O)C1=C(CSC(=S)N(C2CCCCC2)C2CCCCC2)N(C)C(=O)NC1c1ccccc1 (stereo not drawn) ? inactive

Recorded test call requested for Cc1oc2nc[nH]c(=O)c2c1C(=O)/C=C/c1ccc(Cl)cc1Cl inactive

Tell me the recorded outcome of this test for CN(C)C/C=C/C(=O)Nc1cc2c(Nc3ccc(F)c(Cl)c3F)ncnc2cc1OCCOC(F)F . inactive

Outcome? N=C(N)c1ccc(-c2ccc(-c3ccc(Cl)cc3)o2)nc1 active

So what was the verdict on COc1cc(/C=C2\C=C(c3ccc(F)cc3)N(Cc3ccccc3)C2=O)cc(OC)c1OC in this test? inactive

Could you check what this test reported for O=C(CNC(=O)c1cccc2ccccc12)Nc1ccccc1Oc1ccccc1 ? inactive

// param item: Cc1nc2scc(-c3ccccc3)n2c(=O)c1CCO ; yields the recorded call inactive

In this assay, the call recorded for COc1ccc2c(c1)C=CC(C#N)N2C(=O)c1ccccc1 (stereo not drawn) was what? inactive

How was CCN1C(=O)N[C@H]2[C@@H]3NC(=O)c4ccc(Cl)n4[C@@H]3C[C@]21O classified in this test? active

Field: outcome | Entry: O=C(c1c[nH]c2ccccc12)C(Sc1nc2ccccc2c(=O)[nH]1)c1ccccc1 (stereo not drawn) inactive

Which result was noted for this molecule in the test: CCN(CC)CCC(=O)c1cccc2ccccc12 inactive

Tell me the assay call for Cc1nc2sccn2c1-c1csc(Nc2ccccc2Cl)n1 please. inactive

Record request — test call for CCCCCCOc1ccc(C2(Cl)c3ccccc3N(C)c3ccccc32)cc1 inactive

Assay result, entry CN(C)c1nc(N)c(N=O)c(N)n1 — outcome? inactive

Which outcome did this test record for the molecule CC(C(=O)n1cc(-c2ccccc2)c(-c2ccccc2)c1)c1ccccc1 (stereo not drawn) ? inactive

Called result for C=CCOc1ccc(/C(O)=C2\C(=O)C(=O)N(c3nccs3)C2c2ccccc2F)cc1 (stereo not drawn) inactive

Which outcome was assigned to Clc1ccc(-c2nc(-c3ccco3)cn3ccnc23)cc1 in this test? inactive

Query: recorded result category for Cc1nc(Nc2cccnc2)sc1C(=O)/C=C/c1ccc(F)cc1 in this test inactive

# fetch the recorded call for O=C1Nc2cc(Cl)ccc2Oc2cc(Oc3ccccc3)ccc21 here inactive
